# tested-on: T1, human serum albumin (human, UniProt P02768 25-609)
# T1 construct: mature; Bought protein; biotinylated in the Octet and HTRF assays; also called HSA; HuSA
# assay-procedure: binding ELISA on coated albumin, pH 6.0, panel 'HSA Binding at pH 6.0'
value-kind: EC50 (read off the curve)

Here are 2 binders together with their reported answers.
>>> reading("HSA-41 (designed binder, also called HSA-41 parent; HSA-41 AH parent) MIPRGLSEAKPATPEIQEIVDKVKPQLEEKTNETYGKLEAVQYKTQVLANFFQRRWPGSTNYYIKVRAGDNKYMHLKVFNGPWKFRNTDRGADRVLTGYQVDKNKDDELTGFHHHHHH")
"~0.04 nM"
>>> reading("HSA-20 (designed binder) MIPRGLSEAKPATPEIQEIVDKVKPQLEEKTNETYGKLEAVQYKTQVLAGYWAAKWPGSTNYYIKVRAGDNKYMHLKVFNGPFPNTSYDLQADRVLTGYQVDKNKDDELTGFHHHHHH")
"~7 nM"

Please fill in: EC50 (read off the curve) reported for HSA-31 (designed binder) MIPRGLSEAKPATPEIQEIVDKVKPQLEEKTNETYGKLEAVQYKTQVLAVWGPEYQHQSTNYYIKVRAGDNKYMHLKVFNGPNAGWPLVPEADRVLTGYQVDKNKDDELTGFHHHHHH = ~1 nM

Sample HSA-36 (designed binder) MIPRGLSEAKPATPEIQEIVDKVKPQLEEKTNETYGKLEAVQYKTQVLAGHYARYWPGSTNYYIKVRAGDNKYMHLKVFNGPWAQKSKVHQADRVLTGYQVDKNKDDELTGFHHHHHH ; EC50 (read off the curve) observed: ~400 nM

The measured EC50 (read off the curve) associated with HSA-18 (designed binder, also called HSA-18 monomer) MIPRGLSEAKPATPEIQEIVDKVKPQLEEKTNETYGKLEAVQYKTQVLADWWQAKWPHSTNYYIKVRAGDNKYMHLKVFNGPYKVHQSSGGADRVLTGYQVDKNKDDELTGFHHHHHH reads ~0.2 nM
